# System: rodent lifetime carcinogenesis bioassay, tumor incidence TD50
# Assay Explanation: carcinogenic potency in animals, long-term in vivo studies, CPDB compilation (AID 1745844)
# Test Parameters: rat; strain Wistar; males; in drinking water; site: liver; lesion: hepatocellular carcinoma; dosed 172 weeks; study length 172 weeks
Measurement Name: TD50 (mg/kg/day)
Number in mg/kg/day, nothing else.

Query: Suppose we examine the compound ClC(Cl)Cl ; what TD50 value has been reported?
Result: 5300

---

# Test system: rodent lifetime carcinogenesis bioassay, tumor incidence TD50
# Assay Explanation: carcinogenic potency in animals, long-term in vivo studies, CPDB compilation (AID 1745844)
# Test Parameters: rat; strain August; females; by gavage; site: kidney; lesion: tubular-cell adenoma + tubular-cell adenocarcinoma; dosed 103 weeks; study length 104 weeks
Measurement Name: TD50 (mg/kg/day)
Number in mg/kg/day, nothing else.

Query: Suppose we examine the molecule ClC=C(Cl)Cl ; what TD50 value has been reported?
Result: 2240

---

# System: rodent lifetime carcinogenesis bioassay, tumor incidence TD50
# Assay Explanation: carcinogenic potency in animals, long-term in vivo studies, CPDB compilation (AID 1745844)
# Test Parameters: rat; strain Fischer 344; females; in drinking water; site: liver; lesion: several types; types named in the paper; dosed 100 weeks; study length 126 weeks
Measurement Name: TD50

Query: Suppose we examine the molecule O=NN1CCOCC1 ; what TD50 value has been reported?
Result: 0.127 mg/kg/day

---

# Test system: rodent lifetime carcinogenesis bioassay, tumor incidence TD50
# Assay Explanation: carcinogenic potency in animals, long-term in vivo studies, CPDB compilation (AID 1745844)
# Test Parameters: rat; strain Sprague-Dawley; females; i.p.; site: ear canal + skin; lesion: squamous-cell carcinoma; dosed 36 weeks; study length 79 weeks
Measurement Name: TD50

Query: Suppose we examine the compound S=P(N1CC1)(N1CC1)N1CC1 ; what TD50 value has been reported?
Result: 0.214 mg/kg/day

---

# Tested on: rodent lifetime carcinogenesis bioassay, tumor incidence TD50
# Assay Explanation: carcinogenic potency in animals, long-term in vivo studies, CPDB compilation (AID 1745844)
# Test Parameters: rat; strain F344/DuCrj; males; in feed; site: liver; lesion: hyperplastic nodule; dosed 104 weeks; study length 112 weeks
Calls of active or inactive are those of the source. The rule behind the calls is not given here.
Measurement Name: TD50

Query: Suppose we examine the compound O=c1c(O)c(-c2ccc(O)c(O)c2)oc2cc(O)cc(O)c12 ; what TD50 value has been reported?
Result: 66800 mg/kg/day (inactive)

---

# Tested on: rodent lifetime carcinogenesis bioassay, tumor incidence TD50
# Assay Explanation: carcinogenic potency in animals, long-term in vivo studies, CPDB compilation (AID 1745844)
# Test Parameters: rat; strain F344/DuCrj; males; in feed; site: small intestine; lesion: adenoma; dosed 67 weeks; study length 67 weeks
Measurement Name: TD50

Query: Suppose we examine the compound Cc1cccn2c1nc1ccc(N)nc12 ; what TD50 value has been reported?
Result: 8.21 mg/kg/day

---

# System: rodent lifetime carcinogenesis bioassay, tumor incidence TD50
# Assay Explanation: carcinogenic potency in animals, long-term in vivo studies, CPDB compilation (AID 1745844)
# Test Parameters: hamster; strain Syrian Golden; males; by gavage; site: pancreatic duct; lesion: carcinoma; dosed 66 weeks; study length 87 weeks
Measurement Name: TD50

Query: Suppose we examine the compound CC1CN(N=O)CC(C)O1 (stereo unspecified) ; what TD50 value has been reported?
Result: 6.67 mg/kg/day
